These entries and their values trace back to patent US20200079833A1.

System Under Test: GLP-1 receptor (GLP-1R), primary cAMP assay (human, UniProt P43220 24-463)
Method Summary: cell-based or functional assay
Starred links: 1 amine or outer side, 2 acyl side, 3 side chain; linkers in the order of their positions; H or OH if unused. Non-standard residues stand in square brackets, D forms with d. Groups on a side chain read outwards from the residue. Primed or numbered codes have the meaning given here. No end group written: not given here. *: point of attachment. γGlu = O=C(O)[C@H](CCC(=O)[*:2])N[*:1]; Palmitoyl = CCCCCCCCCCCCCCCC(=O)*; αMeF = C[C@](N)(Cc1ccccc1)C(=O)O; αMeK = C[C@](N)(CCCCN)C(=O)O; Lauroyl = CCCCCCCCCCCC(=O)*; αMeS = C[C@](N)(CO)C(=O)O; PEG2′ = not defined here; Aib = CC(C)(N)C(=O)O
Quick list: Primary assay EC50 (cAMP) Mean per entry.
Unit nM implied. Number only.

Qu. # query: Primary assay EC50 (cAMP) Mean of entry H[Aib]EGS[αMeF]TSDVSK([PEG2′-PEG2′-γGlu-Lauroyl])YLEGEAA[αMeK]EFIAWK([PEG2′-PEG2′-γGlu-Lauroyl])VEGG-NH2 [SEQ ID NO: 253]
Ans. 0.0206

Qu. Could you do the same for H[Aib]EGS[αMeF]TSDV[αMeS]SK([PEG2′-PEG2′-γGlu-Lauroyl])LEGEAA[αMeK]EFIAK([PEG2′-PEG2′-γGlu-Lauroyl])VVEGG-NH2 [SEQ ID NO: 263] , please?
Ans. 0.0012

Qu. What about this binder? H[Aib]EGS[αMeF]TSDK([PEG2′-PEG2′-γGlu-Palmitoyl])SSYLEGEAA[αMeK]EFIAWK([PEG2′-PEG2′-γGlu-Palmitoyl])VEGG-NH2 [SEQ ID NO: 261]
Ans. 0.418

Qu. Another binder to look at: H[Aib]EGS[αMeF]TSDV[αMeS]SK([PEG2′-PEG2′-γGlu-Palmitoyl])LEGEAA[αMeK]EFIAWK([PEG2′-PEG2′-γGlu-Palmitoyl])VEGG-NH2 [SEQ ID NO: 267]
Ans. 0.569

Qu. // next record H[Aib]EGS[αMeF]TSDV[αMeS]SK([PEG2′-PEG2′-γGlu-Palmitoyl])LEGEAA[αMeK]EFIAK([PEG2′-PEG2′-γGlu-Palmitoyl])VVEGG-NH2 [SEQ ID NO: 266]
Ans. 0.479

Qu. What do you get for H[Aib]EGS[αMeF]TSDV[αMeS]SK([PEG2′-PEG2′-γGlu-Lauroyl])LEGEAA[αMeK]EFIK([PEG2′-PEG2′-γGlu-Lauroyl])WVVEGG-NH2 [SEQ ID NO: 262] ?
Ans. 0.0054

Qu. Note, next up: H[Aib]EGS[αMeF]TSDVSK([PEG2′-PEG2′-γGlu-Palmitoyl])FLEGEAA[αMeK]EFIK([PEG2′-PEG2′-γGlu-Palmitoyl])FVVEGG-NH2 [SEQ ID NO: 250]
Ans. 0.0451

Qu. Another binder: H[Aib]EGS[αMeF]TSDVSK([PEG2′-PEG2′-γGlu-Palmitoyl])YLEGEAA[αMeK]EFIAWK([PEG2′-PEG2′-γGlu-Palmitoyl])VEGG-NH2 [SEQ ID NO: 255]
Ans. 0.463
